system: T1, His-tagged human IGF1R protein (ACRO Biosystems Inc., Cat #: IGR-H5229) (human, UniProt P08069 31-932)
T1 construct: Bought protein; also called hIGF1R-His; not shown: His tag
T1 sequence (P08069 31-932): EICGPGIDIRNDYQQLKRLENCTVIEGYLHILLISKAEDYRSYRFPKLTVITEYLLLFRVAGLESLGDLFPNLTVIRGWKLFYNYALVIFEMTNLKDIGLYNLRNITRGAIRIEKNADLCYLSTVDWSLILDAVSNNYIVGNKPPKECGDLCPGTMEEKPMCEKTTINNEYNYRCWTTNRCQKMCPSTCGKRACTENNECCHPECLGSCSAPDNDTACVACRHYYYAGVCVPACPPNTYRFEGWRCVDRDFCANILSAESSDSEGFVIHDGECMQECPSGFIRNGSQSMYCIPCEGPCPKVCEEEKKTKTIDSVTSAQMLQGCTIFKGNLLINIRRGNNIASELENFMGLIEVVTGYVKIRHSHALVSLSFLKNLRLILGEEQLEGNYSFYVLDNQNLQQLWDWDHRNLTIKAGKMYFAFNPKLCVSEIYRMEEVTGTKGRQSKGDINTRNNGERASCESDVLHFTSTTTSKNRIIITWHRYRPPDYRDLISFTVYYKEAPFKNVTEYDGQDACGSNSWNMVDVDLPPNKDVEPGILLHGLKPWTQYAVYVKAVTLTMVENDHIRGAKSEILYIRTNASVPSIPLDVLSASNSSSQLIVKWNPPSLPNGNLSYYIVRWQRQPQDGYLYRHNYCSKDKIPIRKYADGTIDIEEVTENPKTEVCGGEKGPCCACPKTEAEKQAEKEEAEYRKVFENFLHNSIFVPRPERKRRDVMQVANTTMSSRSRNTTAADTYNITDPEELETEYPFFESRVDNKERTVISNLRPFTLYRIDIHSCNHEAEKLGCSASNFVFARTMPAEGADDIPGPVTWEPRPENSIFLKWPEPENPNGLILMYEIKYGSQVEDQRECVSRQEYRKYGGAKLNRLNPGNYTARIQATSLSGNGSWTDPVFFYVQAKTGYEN
test-description: SPR (Biacore 8K) on captured hIGF1R-His, binder injected second (Analyte 2); competitor injected first (Analyte 1): 10D1
Listed below: binding ratio (Analyte 2 / Analyte 1) values for each entry.

binder | binding ratio (Analyte 2 / Analyte 1)
anti-IGF1R antibody 10D1 (antibody, human IgG1, V domains shown) VH: QVQLQQSGGGVVRPGGSLRLSCAASGFTFADYGMSWVRQVPGKGLEWVSGINWNGGSTDYADSVKGRFTISRDNAKHSLYLQMNSLRAEDTAFYYCARDRGAVSRRYYYYGMDVWGLGTTVTVSS VL: AIQLTQSPSSLSASVGDRVTITCRASQDIRNDLGWYQLKPGKAPKRLIYAASRLQSGVPSGFSGSGSGTEFTLTISSLQPEDFATYYCLQHNSYPYTFGQGTKLEIK | -0.02
anti-IGF1R antibody 10G1 (antibody, human IgG1, V domains shown) VH: QVQLVESGGGLVKPGGSLRLSCAASEFTFSDYYMSWIRQSPGKGLEWVSYISNSGSFTNYADSVKGRFTISRDNAKNSLYLQMNSLRAEDSAIYYCVRDQAPVTSKYYYYGMDVWGQGTTVTVSS VL: EIVLTQSPSSLSASVGDRVTITCRASQGIRNDFAWYQQKPGKAPKRLIYAASRLQRGVPSRFSGSGSGTEFTLTISSLQPEDFATYYCLQHNSYPYTFGQGTKLEIK | -0.04
anti-IGF1R antibody 12D1 (antibody, human IgG1, V domains shown) VH: QVQLVESGGGVVRPGGSLRLSCAASGFTFDDYGMSWVRQVPGKGLEWVSGINWNGGSTDYADSVKGRFTISREKAKNSLYLQMNSLRAEDTALYYCVRDRGAVTRRYYYYGMDVWGQGTTVTVSS VL: DIQMTQSPSSLSASVGDRVTITCRASQDIRNDLGWYQLKPGKAPKRLIYAASRLQSGVPSRFSGSGSGTEFTLTISSLQPEDFATYYCLQHNSYPYTFGQGTKLEIK | -0.04
anti-IGF1R antibody 12A4 (antibody, V domains shown) VH: EVQLVQSGGGEIRPGGSLRLSCAASGFTFADYGMSWVRQAPGEGLEWVSEIDWTGGSKLYADSVKGRFTISRDNAKNSLFLQMNSLRAEDTALYYCVRDRGAVSPKYYYYGMDVWGQGTTVTVSS VL: EIVLTQSPSSLSASVGDRVTITCRASQGIRNDLGWYQQKPGKAPKRLIYAASRLQSGVPSRFSGSGSGTDFTLTISSLQPEDFATYYCLQHNSYPYTFGQGTKLEIK | -0.05
